System: Cellulolytic Enzyme Composition #1
Method: mini-plate-scale AVICEL hydrolysis by Cellulolytic Enzyme Composition #1
Type: biochemical, Trichoderma reesei
Assay context: 10 mM
Readout label: Effect on hydrolysis (in words)

Give recorded Effect on hydrolysis (in words). [Ca+2].[Cl-].[Cl-] [Ca(II), CaCl2]
slight enhancement

Give recorded Effect on hydrolysis (in words). [Cl-].[Cl-].[Mg+2] [Mg(II), MgCl2]
slight enhancement

----------
Experimental system: Cellulolytic Enzyme Composition #1
Method: mini-plate-scale PASC hydrolysis by Cellulolytic Enzyme Composition #1
Format: biochemical, Trichoderma reesei
Assay context: PASC; Enzymes: Cellulolytic Enzyme Composition #1; read-out: I50 (mean ± SD)
Readout label: IC50
Field: value (include unit after the number)

Give recorded IC50. [Fe+2] [Fe(II)]
14 mM
